system: Mannheimia haemolytica; assay: minimum inhibitory concentration (MIC); conditions: isolate (source animal id): 8
endpoint label: minimum inhibitory concentration

compound: CCN1CCN(c2cc3c(cc2F)c(=O)c(C(=O)O)cn3C2CC2)CC1
endpoint label: minimum inhibitory concentration
result: 0.5 µg/mL
//
compound: COc1cc(NS(=O)(=O)c2ccc(N)cc2)nc(OC)n1
endpoint label: minimum inhibitory concentration
result: > 256 µg/mL
//
compound: CCCN1C[C@H](C)[C@@H](O)[C@](C)(O)[C@@H](CC)OC(=O)[C@H](C)[C@@H](O[C@H]2C[C@@](C)(OC)[C@@H](O)[C@H](C)O2)[C@H](C)[C@@H](O[C@@H]2O[C@H](C)C[C@H](N(C)C)[C@H]2O)[C@](C)(O)C[C@H]1C
endpoint label: minimum inhibitory concentration
result: ≤ 1 µg/mL
//
compound: CNC(C)C1CCC(N)C(OC2C(N)CC(N)C(OC3OCC(C)(O)C(NC)C3O)C2O)O1 (stereo unspecified)
endpoint label: minimum inhibitory concentration
result: 2 µg/mL
//
compound: CC[C@H]1OC(=O)C[C@@H](O)[C@H](C)[C@@H](O[C@@H]2O[C@H](C)[C@@H](O[C@H]3C[C@@](C)(O)[C@@H](O)[C@H](C)O3)[C@H](N(C)C)[C@H]2O)[C@@H](CC=O)C[C@@H](C)C(=O)/C=C/C(C)=C/[C@@H]1CO[C@@H]1O[C@H](C)[C@@H](O)[C@@H](OC)[C@H]1OC
endpoint label: minimum inhibitory concentration
result: > 32 µg/mL
//
compound: CC1(C)S[C@@H]2[C@H](NC(=O)[C@H](N)c3ccccc3)C(=O)N2[C@H]1C(=O)O
endpoint label: minimum inhibitory concentration
result: ≤ 0.25 µg/mL

* * *

The entries below come with measured minimum inhibitory concentration values attached.
tested on: Pasteurella multocida; test: minimum inhibitory concentration (MIC); details: isolate (source animal id): 210
endpoint label: minimum inhibitory concentration

compound: CCCN1C[C@H](C)[C@@H](O)[C@](C)(O)[C@@H](CC)OC(=O)[C@H](C)[C@@H](O[C@H]2C[C@@](C)(OC)[C@@H](O)[C@H](C)O2)[C@H](C)[C@@H](O[C@@H]2O[C@H](C)C[C@H](N(C)C)[C@H]2O)[C@](C)(O)C[C@H]1C [Gamithromycin]
result: > 8 µg/mL
--
compound: CN[C@@H]1[C@H](O)[C@H](NC)[C@H]2O[C@@]3(O)C(=O)C[C@@H](C)O[C@H]3O[C@@H]2[C@H]1O [Spectinomycin]
result: 32 µg/mL
--
compound: CC[C@H]1OC(=O)C[C@@H](O)[C@H](C)[C@@H](O[C@@H]2O[C@H](C)[C@@H](O[C@H]3C[C@@](C)(O)[C@@H](O)[C@H](C)O3)[C@H](N(C)C)[C@H]2O)[C@@H](CC=O)C[C@@H](C)C(=O)/C=C/C(C)=C/[C@@H]1CO[C@@H]1O[C@H](C)[C@@H](O)[C@@H](OC)[C@H]1OC [Tylosin]
result: > 32 µg/mL
--
compound: CC[C@H]1OC(=O)C[C@@H](O)[C@H](C)[C@@H](O[C@@H]2O[C@H](C)[C@@H](O)[C@H](N(C)C)[C@H]2O)[C@@H](CCN2CCCCC2)C[C@@H](C)C(=O)/C=C/C(C)=C/[C@@H]1CN1CCCCC1 [Tildipirosin]
result: > 16 µg/mL

* * *

test system: Enterococcus spp.; experiment: minimum inhibitory concentration (MIC); conditions: isolate (source animal id): 285
The entries below come with measured minimum inhibitory concentration values attached.
endpoint label: minimum inhibitory concentration

sample smiles: CN(C)[C@@H]1C(O)=C(C(N)=O)C(=O)[C@@]2(O)C(O)=C3C(=O)c4c(O)cccc4[C@@](C)(O)[C@H]3C[C@@H]12
endpoint label: minimum inhibitory concentration
result: ≤ 0.5 µg/mL
//
sample smiles: C=C[C@]1(C)C[C@@H](OC(=O)CSCCN(CC)CC)[C@]2(C)[C@H](C)CC[C@]3(CCC(=O)[C@H]32)[C@@H](C)[C@@H]1O
endpoint label: minimum inhibitory concentration
result: > 32 µg/mL
//
sample smiles: CC[C@H]1OC(=O)C[C@@H](O)[C@H](C)[C@@H](O[C@@H]2O[C@H](C)[C@@H](O[C@H]3C[C@@](C)(O)[C@@H](O)[C@H](C)O3)[C@H](N(C)C)[C@H]2O)[C@@H](CC=O)C[C@@H](C)C(=O)/C=C/C(C)=C/[C@@H]1CO[C@@H]1O[C@H](C)[C@@H](O)[C@@H](OC)[C@H]1OC
endpoint label: minimum inhibitory concentration
result: > 32 µg/mL
//
sample smiles: CN1C[C@@H]2C[C@H]1CN2c1cc2c(cc1F)c(=O)c(C(=O)O)cn2C1CC1
endpoint label: minimum inhibitory concentration
result: 1 µg/mL
//
sample smiles: CC[C@H]1OC(=O)C[C@@H](O)[C@H](C)[C@@H](O[C@@H]2O[C@H](C)[C@@H](O)[C@H](N(C)C)[C@H]2O)[C@@H](CCN2C[C@H](C)C[C@H](C)C2)C[C@@H](C)C(=O)/C=C/C(C)=C/[C@@H]1CO[C@@H]1O[C@H](C)[C@@H](O)[C@@H](OC)[C@H]1OC
endpoint label: minimum inhibitory concentration
result: > 16 µg/mL
//
sample smiles: COc1cc(NS(=O)(=O)c2ccc(N)cc2)nc(OC)n1
endpoint label: minimum inhibitory concentration
result: > 256 µg/mL
//
sample smiles: CC1(C)S[C@@H]2[C@H](NC(=O)[C@H](N)c3ccccc3)C(=O)N2[C@H]1C(=O)O
endpoint label: minimum inhibitory concentration
result: 1 µg/mL

* * *

The entries below come with measured minimum inhibitory concentration values attached.
system: Histophilus somni; assay: minimum inhibitory concentration (MIC); conditions: isolate (source animal id): 224
endpoint label: minimum inhibitory concentration

sample smiles: CN1C[C@@H]2C[C@H]1CN2c1cc2c(cc1F)c(=O)c(C(=O)O)cn2C1CC1
result: ≤ 0.12 µg/mL

sample smiles: CN[C@@H]1[C@H](O)[C@H](NC)[C@H]2O[C@@]3(O)C(=O)C[C@@H](C)O[C@H]3O[C@@H]2[C@H]1O
result: > 64 µg/mL

sample smiles: CC1(C)S[C@@H]2[C@H](NC(=O)[C@H](N)c3ccccc3)C(=O)N2[C@H]1C(=O)O
result: ≤ 0.25 µg/mL

sample smiles: CCCNC[C@]1(O)[C@H](C)O[C@@H](O[C@H]2[C@H](C)[C@@H](O[C@@H]3O[C@H](C)C[C@H](N(C)C)[C@H]3O)[C@](C)(O)C[C@@H](C)CN[C@H](C)[C@@H](O)[C@](C)(O)[C@@H](CC)OC(=O)[C@@H]2C)C[C@@]1(C)OC
result: ≤ 8 µg/mL

sample smiles: CC1(C)S[C@@H]2[C@H](NC(=O)Cc3ccccc3)C(=O)N2[C@H]1C(=O)O
result: ≤ 0.12 µg/mL

* * *

system: Escherichia coli; test: minimum inhibitory concentration (MIC); conditions: isolate (source animal id): 153
The entries below come with measured minimum inhibitory concentration values attached.

compound: CC[C@H]1OC(=O)C[C@@H](O)[C@H](C)[C@@H](O[C@@H]2O[C@H](C)[C@@H](O)[C@H](N(C)C)[C@H]2O)[C@@H](CCN2C[C@H](C)C[C@H](C)C2)C[C@@H](C)C(=O)/C=C/C(C)=C/[C@@H]1CO[C@@H]1O[C@H](C)[C@@H](O)[C@@H](OC)[C@H]1OC [Tilmicosin]
minimum inhibitory concentration: > 16 µg/mL
//
compound: CC[C@H]1OC(=O)C[C@@H](O)[C@H](C)[C@@H](O[C@@H]2O[C@H](C)[C@@H](O[C@H]3C[C@@](C)(O)[C@@H](O)[C@H](C)O3)[C@H](N(C)C)[C@H]2O)[C@@H](CC=O)C[C@@H](C)C(=O)/C=C/C(C)=C/[C@@H]1CO[C@@H]1O[C@H](C)[C@@H](O)[C@@H](OC)[C@H]1OC [Tylosin]
minimum inhibitory concentration: > 32 µg/mL
//
compound: CCC[C@@H]1C[C@@H](C(=O)N[C@@H]([C@H]2O[C@H](SC)[C@H](O)[C@@H](O)[C@H]2O)[C@H](C)Cl)N(C)C1 [Clindamycin]
minimum inhibitory concentration: > 16 µg/mL
//
compound: CC1(C)S[C@@H]2[C@H](NC(=O)Cc3ccccc3)C(=O)N2[C@H]1C(=O)O [Penicillin]
minimum inhibitory concentration: > 8 µg/mL
//
compound: CCN1CCN(c2cc3c(cc2F)c(=O)c(C(=O)O)cn3C2CC2)CC1 [Enrofloxacin]
minimum inhibitory concentration: ≤ 0.12 µg/mL

* * *

test system: Mannheimia haemolytica; assay: minimum inhibitory concentration (MIC); conditions: isolate (source animal id): 326
endpoint label: minimum inhibitory concentration

sample smiles: CCN1CCN(c2cc3c(cc2F)c(=O)c(C(=O)O)cn3C2CC2)CC1
result: 0.5 µg/mL
--
sample smiles: CCC[C@@H]1C[C@@H](C(=O)N[C@@H]([C@H]2O[C@H](SC)[C@H](O)[C@@H](O)[C@H]2O)[C@H](C)Cl)N(C)C1
result: > 16 µg/mL
--
sample smiles: CC1(C)S[C@@H]2[C@H](NC(=O)Cc3ccccc3)C(=O)N2[C@H]1C(=O)O
result: ≤ 0.12 µg/mL
--
sample smiles: CC[C@H]1OC(=O)C[C@@H](O)[C@H](C)[C@@H](O[C@@H]2O[C@H](C)[C@@H](O)[C@H](N(C)C)[C@H]2O)[C@@H](CCN2C[C@H](C)C[C@H](C)C2)C[C@@H](C)C(=O)/C=C/C(C)=C/[C@@H]1CO[C@@H]1O[C@H](C)[C@@H](O)[C@@H](OC)[C@H]1OC
result: > 16 µg/mL
